system: CCRIS mutagenicity, Ames/micronucleus/aberration tests; assay: CCRIS mutagenicity studies; details: Test System: AMES SALMONELLA TYPHIMURIUM; Strain/Indicator: TA98; Metabolic Activation: RAT, LIVER, S-9, AROCLOR 1254 (10%); Method: STANDARD PLATE
Calls of active or inactive are those of the source. The rule behind the calls is not given here.
Respond using exactly one of the listed classes: class 1 = active, class 0 = inactive

Lookup: Lab log entry: `O=C1CCC(=O)N1Br` — outcome as called in the assay?
Found: class 0

Lookup: Lab log entry: `N#Cc1cc(Br)c(O)c(Br)c1` — outcome as called in the assay?
Found: class 0

Lookup: Lab log entry: CC(O)CN1CC(C)OC1=O (stereo not drawn) — outcome as called in the assay?
Found: class 0

Lookup: Lab log entry: `C=C[Si](C)(C)N[Si](C)(C)C=C` — outcome as called in the assay?
Found: class 0

Lookup: Lab log entry: `c1ccc2c(c1)cc1sc3cccc4ccc2c1c43` — outcome as called in the assay?
Found: class 1

Lookup: Lab log entry: `C=C[Si](C)(C)CCl` — outcome as called in the assay?
Found: class 0

Lookup: Lab log entry: `O=C1c2ccc3nc(-c4ccccc4)sc3c2C(=O)c2ccc3nc(-c4ccccc4)sc3c21` — outcome as called in the assay?
Found: class 0

Lookup: Lab log entry: `O=C([O-])c1ccc2ccccc2c1.[Mn+2].[O-]C(O)c1ccc2ccccc2c1` — outcome as called in the assay?
Found: class 0

* * *

test system: CCRIS mutagenicity, Ames/micronucleus/aberration tests; test: CCRIS mutagenicity studies; settings: Test System: AMES SALMONELLA TYPHIMURIUM; Strain/Indicator: TA98; Metabolic Activation: RAT, LIVER, S-9, AROCLOR 1254; Method: STANDARD PLATE
Calls of active or inactive are those of the source. No rule for the calls is given here.
Respond using exactly one of the listed classes: active, inactive

Lookup: Lab log entry: `CN1CCN=C(c2ccccc2)c2cc(Cl)ccc21` — outcome as called in the assay?
Found: inactive

Lookup: Lab log entry: `O=C/C=C/C=C/C=O` — outcome as called in the assay?
Found: inactive

Lookup: Lab log entry: `Clc1ccc(N=Nc2ccc(Cl)c(Cl)c2)cc1Cl` — outcome as called in the assay?
Found: inactive

Lookup: Lab log entry: `O=c1c(Cl)c(Cl)cnn1S(=O)(=O)c1ccc([N+](=O)[O-])cc1` — outcome as called in the assay?
Found: inactive

Lookup: Lab log entry: `O=[N+]([O-])c1cc2c3c(ccc2c2ccccc12)[C@H](O)[C@@H](O)C=C3` — outcome as called in the assay?
Found: active

Lookup: Lab log entry: `CC(=O)Oc1ccccc1C(=O)O` — outcome as called in the assay?
Found: inactive

Lookup: Lab log entry: `Nc1ccc2cc(S(=O)(=O)O)c(N=Nc3ccc(N=Nc4ccc(NCCO)cc4NCCO)cc3OCCO)c(O)c2c1` — outcome as called in the assay?
Found: active

Lookup: Lab log entry: `Cc1ccc(C)c2c1ccc1ccccc12` — outcome as called in the assay?
Found: active

Lookup: Lab log entry: `O=C([O-])c1ccccn1.O=C([O-])c1ccccn1.O=C([O-])c1ccccn1.[Cr+3]` — outcome as called in the assay?
Found: inactive

Lookup: Lab log entry: `CC/C(=C(/CC)c1ccc(O)cc1)c1ccc(O)cc1` — outcome as called in the assay?
Found: inactive

Lookup: Lab log entry: `CCNc1nc(Cl)nc(NCC)n1` — outcome as called in the assay?
Found: inactive

Lookup: Lab log entry: `COc1cc([C@@H]2c3cc4c(cc3[C@H](O)[C@H]3COC(=O)[C@H]23)OCO4)cc(OC)c1OC` — outcome as called in the assay?
Found: inactive

Sourced from PubChem BioAssay AID1259407
